Experiment: inhibition of PAO1 biofilm formation – strain PAO1, LB-PBS medium, absorbance 600 nm, primary screen (AID 1176); note: test concentration not given here
Settings: P. aeruginosa PAO1 growth/biofilm, A600, 12 h; higher = more signal
Param threshold (0.3) applies to z-score; output True when value >= threshold, False when value < threshold.

The examples below pair each entry with its known result.
compound	answerLabel
C=C(C)[C@@H]1CC=C(C(O)C2C=CC3C(=O)N(Cc4ccccc4)C(=O)C3N2n2cnnc2)CC1 (some centres not stated)	True
CCCCCCCCCCC(O)C1C=CC2C(=O)N(c3ccccc3)C(=O)C2N1Nc1ccc([N+](=O)[O-])cc1 (configuration not stated)	False
O=S(=O)(NCCCO)c1ccc(Br)cc1	False
COc1ccc(C(=O)Nc2cccc(CN3C(=O)[C@@]4(O[C@@H](CCn5cc([C@H](O)c6ccccc6)nn5)[C@H]([Si](C)(C)c5ccc(OC)cc5)[C@H]4C)c4ccccc43)c2)cc1	True

Qu. In plain terms: is recorded z-score at least 0.3 for `COCCCNC(=O)[C@@]1(Cc2ccccc2I)c2ccccc2C(=O)N(Cc2ccccc2)[C@H]1c1ccc(CO)cc1` ?
Ans. False

Qu. Decide: is the reported value of z-score for `COc1ccc([Si](C)(C)[C@@H]2[C@@H](CCO)O[C@]3(C(=O)N(Cc4ccc(N5C(=O)c6cccc7cccc5c67)cc4)c4ccccc43)[C@H]2C)cc1` equal to or greater than 0.3?
Ans. True

Qu. # bool: z-score of [N-]=[N+]=NCc1ccccc1[C@H]1OC(c2ccc(OCCCO)cc2)=N[C@@]1(Cc1ccccc1)C(=O)NCC(O)CO (some centres not stated) >= 0.3
Ans. True
